DC50 values for the compounds below.
SYSTEM UNDER TEST: BRAF G466V (Homo sapiens, UniProt P15056, G466V)
Construct: Horizon Discovery (HCT-116 BRAF−/− cells); host or cells: HCT-116 BRAF−/− cells, clone 8, lentiviral transduction
Sequence (P15056 whole entry G466V): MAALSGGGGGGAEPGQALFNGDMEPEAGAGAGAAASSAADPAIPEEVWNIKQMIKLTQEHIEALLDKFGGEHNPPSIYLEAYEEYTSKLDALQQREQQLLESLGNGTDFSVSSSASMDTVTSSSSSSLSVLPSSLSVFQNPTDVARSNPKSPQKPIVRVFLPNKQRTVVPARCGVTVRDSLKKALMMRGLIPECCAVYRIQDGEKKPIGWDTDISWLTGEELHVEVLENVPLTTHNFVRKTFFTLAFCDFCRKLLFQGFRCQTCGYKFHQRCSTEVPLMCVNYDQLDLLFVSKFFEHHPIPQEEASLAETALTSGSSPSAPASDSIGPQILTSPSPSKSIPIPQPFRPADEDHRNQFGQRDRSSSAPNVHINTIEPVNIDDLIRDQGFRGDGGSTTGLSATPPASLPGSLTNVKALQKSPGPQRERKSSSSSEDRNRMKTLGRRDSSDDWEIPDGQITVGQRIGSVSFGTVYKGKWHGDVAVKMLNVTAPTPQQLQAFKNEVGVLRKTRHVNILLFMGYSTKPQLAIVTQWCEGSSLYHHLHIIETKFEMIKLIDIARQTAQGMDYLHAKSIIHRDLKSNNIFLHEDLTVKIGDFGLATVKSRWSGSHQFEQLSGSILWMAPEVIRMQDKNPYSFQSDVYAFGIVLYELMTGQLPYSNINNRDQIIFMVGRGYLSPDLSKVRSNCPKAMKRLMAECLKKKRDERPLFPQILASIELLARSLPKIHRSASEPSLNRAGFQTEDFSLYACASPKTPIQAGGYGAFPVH
METHOD DESCRIPTION: BRAF HiBiT degradation assay, C-terminal HiBiT-tagged BRAF G466V overexpressed in HCT-116 BRAF−/− cells (clone 8), Nano-Glo HiBiT Lytic assay
Assay type: cell-based
TEST SETTINGS: BRAF G466V; DC50 at 50%: fitted conc. at Y=50

COMPOUND	DC50
CCCS(=O)(=O)Nc1cccc(-c2nc(C(C)(C)C)sc2-c2ccnc(NCC(C)(C)C3CCN(CC4CCN(c5ccc(C(=O)N[C@H]6CCC(=O)NC6=O)nc5)CC4)CC3)n2)c1F	< 10 nM
CCN(C)S(=O)(=O)Nc1cccc(-c2nc(C(C)(C)C)sc2-c2ccnc(Nc3ccc(N4CCN(CC5CCN(c6ccc([C@@H]7CCC(=O)NC7=O)cc6)CC5)CC4)cn3)n2)c1F	10 to 50 nM
CCCS(=O)(=O)Nc1cccc(-c2nc(C(C)(C)C)sc2-c2ccnc(NC3CC4(C3)CN(C(=O)C3(F)CCN(CC5CCN(c6ccc(C7CCC(=O)NC7=O)cc6)CC5)CC3)C4)n2)c1F (racemic)	> 500 nM
CCN(C)S(=O)(=O)Nc1cccc(-c2nc(C(C)(C)C)sc2-c2ccnc(Nc3ccc(N4CCN(C(=O)C5CCN(c6ccc(C7CCC(=O)NC7=O)cn6)CC5)CC4)cn3)n2)c1F (racemic)	< 10 nM
CCCS(=O)(=O)Nc1cccc(-c2nc(C3CCN(C(=O)C4CCN(C(=O)C5CCN(c6ccc(C7CCC(=O)NC7=O)cn6)CC5)CC4)CC3)sc2-c2ccnc(NC)n2)c1F (racemic)	< 10 nM
CCCS(=O)(=O)Nc1cccc(-c2nc(C)sc2-c2ccnc(Nc3ccc(N4CCN(CC5CCN(c6ccc(C7CCC(=O)NC7=O)cn6)CC5)CC4)cn3)n2)c1F (racemic)	10 to 50 nM
